# protocol: T1 and T2 relaxivity measurements at 9.4 T (400 MHz NMR)
# Format: physicochemical
# cond: PBS buffer pH 7.4, 37 °C, without Gln
# Experimental: The effectiveness of a contrast agent depends on its “relaxivity”, which is measured in units of mM^−1 s^−1, and quantifies how much a given concentration of the contrast agent improves water relaxation rates. T1 and T2 relaxivities are denoted r1 and r2, respectively, and are calculated according to eqn (1):1 [drawing 1] […] Optimized 90° and 180° pulse widths were determined on the day of the experiment, and typically spanned 16‒2 0 μs (90° pulse width) and 32‒4 0 μs (180° pulse width). […]
measure: r2 (Apo) (mM⁻¹ s⁻¹)
Give your result in mM⁻¹ s⁻¹ as a bare value.

• [Dy(DOTA-malN)]72-G119K: swArM: Dy(DOTA-mal^N) on T72C/G119K double variant of GlnBP (conjugate, UniProt P0AEQ3 23-248, looked up, variant T72C G119K, Dy(DOTA-malN) at Cys72, swArM: Dy(DOTA-mal^N) on T72C/G119K double variant of GlnBP) Glutamine-binding periplasmic …: ADKKLVVATDTAFVPFEFKQGDKYVGFDVDLWAAIAKELKLDYELKPMDFSGIIPALQTKNVDLALAGITICDERKKAIDFSDGYYKSGLLVMVKANNNDVKSVKDLDGKVVAVKSGTKSVDYAKANIKTKDLRQFPNIDNAYMELGTNRADAVLHDTPNILYFIKTAGNGQFKAVGDSLEAQQYGIAFPKGSDELRDKVNGALKTLRENGTYNEIYKKWFGTEPK = 7.39
• [Dy(DOTA-malC)]72-A126Y: swArM: Dy(DOTA-mal^C), linker on carbon of carboxylate arm, on T72C/A126Y GlnBP (conjugate, UniProt P0AEQ3 23-248, looked up, variant T72C A126Y, Dy(DOTA-malC) at Cys72, swArM: Dy(DOTA-mal^C), linker on carbon of carboxylate arm, on T72C/A126Y GlnBP) Glutamine-binding periplasmic …: ADKKLVVATDTAFVPFEFKQGDKYVGFDVDLWAAIAKELKLDYELKPMDFSGIIPALQTKNVDLALAGITICDERKKAIDFSDGYYKSGLLVMVKANNNDVKSVKDLDGKVVAVKSGTGSVDYAKYNIKTKDLRQFPNIDNAYMELGTNRADAVLHDTPNILYFIKTAGNGQFKAVGDSLEAQQYGIAFPKGSDELRDKVNGALKTLRENGTYNEIYKKWFGTEPK = 9.7

### Prompt What does the data say about its r2 (Apo)? Entry: [Gd(DTPA-malN)]72: swArM: Gd complex of maleimide-functionalized DTPA attached at Cys72 of T72C-GlnBP (conjugate, UniProt P0AEQ3 23-248, looked up, variant T72C, Gd(DTPA-mal) at Cys72, swArM: Gd complex of maleimide-functionalized DTPA attached at Cys72 of T72C-GlnBP) Glutamine-binding periplasmic …: ADKKLVVATDTAFVPFEFKQGDKYVGFDVDLWAAIAKELKLDYELKPMDFSGIIPALQTKNVDLALAGITICDERKKAIDFSDGYYKSGLLVMVKANNNDVKSVKDLDGKVVAVKSGTGSVDYAKANIKTKDLRQFPNIDNAYMELGTNRADAVLHDTPNILYFIKTAGNGQFKAVGDSLEAQQYGIAFPKGSDELRDKVNGALKTLRENGTYNEIYKKWFGTEPK
### Response 65

### Prompt What does the data say about its r2 (Apo)? Entry: [Dy(DOTA-mal^N)]72: swArM: Dy(DOTA-mal^N) attached at Cys72 of T72C-GlnBP (conjugate, UniProt P0AEQ3 23-248, looked up, variant T72C, Dy(DOTA-malN) at Cys72, swArM: Dy(DOTA-mal^N) attached at Cys72 of T72C-GlnBP) Glutamine-binding periplasmic …: ADKKLVVATDTAFVPFEFKQGDKYVGFDVDLWAAIAKELKLDYELKPMDFSGIIPALQTKNVDLALAGITICDERKKAIDFSDGYYKSGLLVMVKANNNDVKSVKDLDGKVVAVKSGTGSVDYAKANIKTKDLRQFPNIDNAYMELGTNRADAVLHDTPNILYFIKTAGNGQFKAVGDSLEAQQYGIAFPKGSDELRDKVNGALKTLRENGTYNEIYKKWFGTEPK
### Response 6.83

### Prompt What does the data say about its r2 (Apo)? Entry: [Dy(DOTA-mal^N)]72-N127Y: swArM: Dy(DOTA-mal^N) on T72C/N127Y double variant of GlnBP (conjugate, UniProt P0AEQ3 23-248, looked up, variant T72C N127Y, Dy(DOTA-malN) at Cys72, swArM: Dy(DOTA-mal^N) on T72C/N127Y double variant of GlnBP) Glutamine-binding periplasmic …: ADKKLVVATDTAFVPFEFKQGDKYVGFDVDLWAAIAKELKLDYELKPMDFSGIIPALQTKNVDLALAGITICDERKKAIDFSDGYYKSGLLVMVKANNNDVKSVKDLDGKVVAVKSGTGSVDYAKAYIKTKDLRQFPNIDNAYMELGTNRADAVLHDTPNILYFIKTAGNGQFKAVGDSLEAQQYGIAFPKGSDELRDKVNGALKTLRENGTYNEIYKKWFGTEPK
### Response 6.5

### Prompt What does the data say about its r2 (Apo)? Entry: [Gd(DOTA-malN)]72-Q183K: swArM: Gd(DOTA-mal^N) on T72C/Q183K double variant of GlnBP (conjugate, UniProt P0AEQ3 23-248, looked up, variant T72C Q183K, Gd(DOTA-malN) at Cys72, swArM: Gd(DOTA-mal^N) on T72C/Q183K double variant of GlnBP) Glutamine-binding periplasmic …: ADKKLVVATDTAFVPFEFKQGDKYVGFDVDLWAAIAKELKLDYELKPMDFSGIIPALQTKNVDLALAGITICDERKKAIDFSDGYYKSGLLVMVKANNNDVKSVKDLDGKVVAVKSGTGSVDYAKANIKTKDLRQFPNIDNAYMELGTNRADAVLHDTPNILYFIKTAGNGQFKAVGDSLEAKQYGIAFPKGSDELRDKVNGALKTLRENGTYNEIYKKWFGTEPK
### Response 30.9

### Prompt What does the data say about its r2 (Apo)? Entry: [Dy(DOTA-malN)]72-Q183Y: swArM: Dy(DOTA-mal^N) on T72C/Q183Y double variant of GlnBP (conjugate, UniProt P0AEQ3 23-248, looked up, variant T72C Q183Y, Dy(DOTA-malN) at Cys72, swArM: Dy(DOTA-mal^N) on T72C/Q183Y double variant of GlnBP) Glutamine-binding periplasmic …: ADKKLVVATDTAFVPFEFKQGDKYVGFDVDLWAAIAKELKLDYELKPMDFSGIIPALQTKNVDLALAGITICDERKKAIDFSDGYYKSGLLVMVKANNNDVKSVKDLDGKVVAVKSGTGSVDYAKANIKTKDLRQFPNIDNAYMELGTNRADAVLHDTPNILYFIKTAGNGQFKAVGDSLEAYQYGIAFPKGSDELRDKVNGALKTLRENGTYNEIYKKWFGTEPK
### Response 14.0

### Prompt What does the data say about its r2 (Apo)? Entry: [Gd(DOTA-mal^N)]72: swArM: Gd(DOTA-mal^N) metallocofactor covalently attached at Cys72 of T72C E. coli glutamine-binding protein (GlnBP) (conjugate, UniProt P0AEQ3 23-248, looked up, variant T72C, Gd(DOTA-malN) at Cys72) Glutamine-binding periplasmic …: ADKKLVVATDTAFVPFEFKQGDKYVGFDVDLWAAIAKELKLDYELKPMDFSGIIPALQTKNVDLALAGITICDERKKAIDFSDGYYKSGLLVMVKANNNDVKSVKDLDGKVVAVKSGTGSVDYAKANIKTKDLRQFPNIDNAYMELGTNRADAVLHDTPNILYFIKTAGNGQFKAVGDSLEAQQYGIAFPKGSDELRDKVNGALKTLRENGTYNEIYKKWFGTEPK
### Response 36

Origin of measurements: paper PMC12699829
